// provenance: paper PMC6838048

Experiment: fu,cell by equilibrium dialysis of cell homogenate, primary human hepatocytes
Type: in vitro ADME
Details: primary human hepatocyte homogenate, dialysis 4 h 37°C, 10 million cells/mL homogenate, read-out: fu,HH Geomean
readout.label: fraction unbound at 4 h, 0.5 μM

[[record]]
compound = "Cn1c(=O)c2c(ncn2C)n(C)c1=O"
readout_label = "fraction unbound at 4 h, 0.5 μM"
measured_value = 0.248


A = Cc1ccccc1N1C(=O)c2cc(S(N)(=O)=O)c(Cl)cc2NC1C (stereo not shown)
B = OC(Cn1cncn1)(Cn1cncn1)c1ccc(F)cc1F
Pick one: A or B . Which one has the lower reported fraction unbound at 4 h, 0.5 μM? Use the label to indicate which entry you chose.
A
(A: 0.0709, B: 0.737)

I = COc1ccc2[nH]c([S+]([O-])Cc3ncc(C)c(OC)c3C)nc2c1 (stereo not shown)
II = COCCc1ccc(OCC(O)CNC(C)C)cc1 (stereo not shown)
Between I and II , which one shows the smaller fraction unbound at 4 h, 0.5 μM number? Use the label to indicate which entry you chose.
I
(I: 0.161, II: 0.374)

###

Assay: fu,cell by equilibrium dialysis of cell homogenate, MDCK
Type: in vitro ADME
Conditions: dog, dialysis 4 h 37°C, 10 million cells/mL homogenate, read-out: fu,MDCK Geomean
readout.label: fraction unbound at 4 h, 0.5 μM

Study these solved cases before continuing.
[[record]]
compound = "CCOc1cc(CC(=O)N[C@@H](CC(C)C)c2ccccc2N2CCCCC2)ccc1C(=O)O [Repaglinide]"
measured_value = 0.0269

[[record]]
compound = "Nc1ccc(/N=N/c2ccccc2)c(N)n1 [Phenazopyridine]"
measured_value = 0.0215

[[record]]
compound = "COc1ccccc1Oc1c(NS(=O)(=O)c2ccc(C(C)(C)C)cc2)nc(-c2ncccn2)nc1OCCO [Bosentan]"
measured_value = 0.036

[[record]]
compound = "CCCNC(=O)NS(=O)(=O)c1ccc(Cl)cc1 [Chlorpropamide]"
measured_value = 0.349

[[record]]
compound = "CCN(CC)CCCC(C)Nc1c2ccc(Cl)cc2nc2ccc(OC)cc12 (stereo not drawn) [Quinacrine]"
measured_value = 0.0036


1 = COc1ccc2[nH]c([S+]([O-])Cc3ncc(C)c(OC)c3C)nc2c1 (stereo not drawn) [Omeprazole]
2 = CC(C)n1c(/C=C/C(O)CC(O)CC(=O)O)c(-c2ccc(F)cc2)c2ccccc21 (stereo not drawn) [Fluvastatin]
3 = CC[C@H](C)C(=O)O[C@H]1C[C@@H](C)C=C2C=C[C@H](C)[C@H](CC[C@@H]3C[C@@H](O)CC(=O)O3)[C@H]21 [Lovastatin]
Please list these in order of increasing fraction unbound at 4 h, 0.5 μM. Thank you! Form field (ranking): labels in requested order.
3, 2, 1
(3: 0.0045, 2: 0.0338, 1: 0.255)

###

Experiment: fu,PL from membrane affinity to PL-covered silica beads, PC
Type: in vitro ADME
Conditions: silica beads covered with phosphatidylcholine (PC), Transil; beads coated with pure PC, 15 min incubation; read-out: fu,PC Geomean
readout.label: fraction unbound at 15 min

Reference set (4 entries):
[[record]]
compound = "COc1ccc2[nH]c([S+]([O-])Cc3ncc(C)c(OC)c3C)nc2c1 (stereo not drawn) [Omeprazole]"
readout_label = "fraction unbound at 15 min"
measured_value = 0.0203

[[record]]
compound = "CCOc1cc(CC(=O)N[C@@H](CC(C)C)c2ccccc2N2CCCCC2)ccc1C(=O)O [Repaglinide]"
readout_label = "fraction unbound at 15 min"
measured_value = 0.0114

[[record]]
compound = "Nc1ccc(/N=N/c2ccccc2)c(N)n1 [Phenazopyridine]"
readout_label = "fraction unbound at 15 min"
measured_value = 0.0005

[[record]]
compound = "COc1ccccc1Oc1c(NS(=O)(=O)c2ccc(C(C)(C)C)cc2)nc(-c2ncccn2)nc1OCCO [Bosentan]"
readout_label = "fraction unbound at 15 min"
measured_value = 0.002


A = CC(C)n1c(/C=C/C(O)CC(O)CC(=O)O)c(-c2ccc(F)cc2)c2ccccc21 (stereo not drawn) [Fluvastatin]
B = CCCNC(=O)NS(=O)(=O)c1ccc(Cl)cc1 [Chlorpropamide]
C = Cc1ccccc1N1C(=O)c2cc(S(N)(=O)=O)c(Cl)cc2NC1C (stereo not drawn) [Metolazone]
D = COc1ccc([C@@H]2Sc3ccccc3N(CCN(C)C)C(=O)[C@@H]2OC(C)=O)cc1 [Diltiazem]
E = CCOc1nc2cccc(C(=O)O)c2n1Cc1ccc(-c2ccccc2-c2nnn[nH]2)cc1 [Candesartan]
Order these by fraction unbound at 15 min, descending, and give the full ranking. Give me the labels in the order the question wants.
B, E, C, D, A

###

Test: fu,PL from membrane affinity to PL-covered silica beads, mixed beads
Type: in vitro ADME
Conditions: mixed beads PC:PE:PS:PI 52:22:12:14 mol%, 15 min incubation; read-out: fu,mixed bead Geomean
Method: f u,PL was derived from membrane affinity measurements to beads covered with PLs as previously described ([6]). Cbuffer was quantified by LC-MS/MS in samples of the supernatant that was obtained after 15 min incubation time on an orbital shaker at 1000 rpm and subsequent separation from the beads by centrifugation at 750 x g. […] Unspecific binding was evaluated by incubations into wells without added lipids.
readout.label: fraction unbound at 15 min

[[record]]
molecule = "OC(Cn1cncn1)(Cn1cncn1)c1ccc(F)cc1F [Fluconazole]"
readout_label = "fraction unbound at 15 min"
measured_value = 0.028


P = COc1ccccc1Oc1c(NS(=O)(=O)c2ccc(C(C)(C)C)cc2)nc(-c2ncccn2)nc1OCCO [Bosentan]
Q = COc1ccc2[nH]c([S+]([O-])Cc3ncc(C)c(OC)c3C)nc2c1 (centres unmarked) [Omeprazole]
R = Cc1cccc(C)c1OCC(=O)N[C@@H](Cc1ccccc1)[C@@H](O)C[C@H](Cc1ccccc1)NC(=O)[C@H](C(C)C)N1CCCNC1=O [Lopinavir]
S = CC[C@H](C)C(=O)O[C@H]1C[C@@H](C)C=C2C=C[C@H](C)[C@H](CC[C@@H]3C[C@@H](O)CC(=O)O3)[C@H]21 [Lovastatin]
Order field: fraction unbound at 15 min | Direction: descending (largest first) // ordering of labels required in reply
Q, P, R, S
(Q: 0.0237, P: 0.004, R: 0.0011, S: 0.0002)

###

Experiment: fu,cell by equilibrium dialysis of cell homogenate, HEK293
Type: in vitro ADME
Conditions: human, dialysis 4 h 37°C, 10 million cells/mL homogenate, read-out: fu,HEK293 Geomean
readout.label: fraction unbound at 4 h, 0.5 μM

[[record]]
molecule = "COC(=O)CCc1ccc(OCC(O)CNC(C)C)cc1 (stereo not drawn) [Esmolol]"
measured_value = 0.196

[[record]]
molecule = "CCN(CC)CCCC(C)Nc1ccnc2cc(Cl)ccc12 (stereo not drawn) [Chloroquine]"
measured_value = 0.0824

[[record]]
molecule = "CC(C)n1c(/C=C/C(O)CC(O)CC(=O)O)c(-c2ccc(F)cc2)c2ccccc21 (stereo not drawn) [Fluvastatin]"
measured_value = 0.0403

[[record]]
molecule = "COc1ccc([C@@H]2Sc3ccccc3N(CCN(C)C)C(=O)[C@@H]2OC(C)=O)cc1 [Diltiazem]"
measured_value = 0.0637

[[record]]
molecule = "CCOc1nc2cccc(C(=O)O)c2n1Cc1ccc(-c2ccccc2-c2nnn[nH]2)cc1 [Candesartan]"
measured_value = 0.246


a = CC[C@H](C)C(=O)O[C@H]1C[C@@H](C)C=C2C=C[C@H](C)[C@H](CC[C@@H]3C[C@@H](O)CC(=O)O3)[C@H]21 [Lovastatin]
b = Cc1ccccc1N1C(=O)c2cc(S(N)(=O)=O)c(Cl)cc2NC1C (stereo not drawn) [Metolazone]
c = CCCNC(=O)NS(=O)(=O)c1ccc(Cl)cc1 [Chlorpropamide]
d = Cc1cccc(C)c1OCC(=O)N[C@@H](Cc1ccccc1)[C@@H](O)C[C@H](Cc1ccccc1)NC(=O)[C@H](C(C)C)N1CCCNC1=O [Lopinavir]
e = COCCc1ccc(OCC(O)CNC(C)C)cc1 (stereo not drawn) [Metoprolol]
# ascending order, key=fraction unbound at 4 h, 0.5 μM // format: requested-order list of labels
a, d, e, b, c
(a: 0.0074, d: 0.0155, e: 0.0906, b: 0.226, c: 0.571)

###

Assay: fu,cell by equilibrium dialysis of cell homogenate, K562
Type: in vitro ADME
Settings: human, dialysis 4 h 37°C, 10 million cells/mL homogenate, read-out: fu,K562 Geomean
readout.label: fraction unbound at 4 h, 0.5 μM

Recorded results for 6 compounds are shown here.
[[record]]
compound = "CC(C)n1c(/C=C/C(O)CC(O)CC(=O)O)c(-c2ccc(F)cc2)c2ccccc21 (stereo not drawn)"
measured_value = 0.0838

[[record]]
compound = "CC[C@H](C)C(=O)O[C@H]1C[C@@H](C)C=C2C=C[C@H](C)[C@H](CC[C@@H]3C[C@@H](O)CC(=O)O3)[C@H]21"
measured_value = 0.0055

[[record]]
compound = "Nc1ccc(/N=N/c2ccccc2)c(N)n1"
measured_value = 0.0348

[[record]]
compound = "CCN(CC)CCCC(C)Nc1c2ccc(Cl)cc2nc2ccc(OC)cc12 (stereo not drawn)"
measured_value = 0.0164

[[record]]
compound = "COc1ccc([C@@H]2Sc3ccccc3N(CCN(C)C)C(=O)[C@@H]2OC(C)=O)cc1"
measured_value = 0.119

[[record]]
compound = "Cc1ccccc1N1C(=O)c2cc(S(N)(=O)=O)c(Cl)cc2NC1C (stereo not drawn)"
measured_value = 0.485


A = CCOc1nc2cccc(C(=O)O)c2n1Cc1ccc(-c2ccccc2-c2nnn[nH]2)cc1
B = CCCNC(=O)NS(=O)(=O)c1ccc(Cl)cc1 [Chlorpropamide]
C = CCN(CC)CCCC(C)Nc1ccnc2cc(Cl)ccc12 (stereo not drawn)
D = COc1ccccc1Oc1c(NS(=O)(=O)c2ccc(C(C)(C)C)cc2)nc(-c2ncccn2)nc1OCCO
E = Cc1cccc(C)c1OCC(=O)N[C@@H](Cc1ccccc1)[C@@H](O)C[C@H](Cc1ccccc1)NC(=O)[C@H](C(C)C)N1CCCNC1=O
Please list the entries, largest fraction unbound at 4 h, 0.5 μM first. Return value: ordered labels per request.
A, B, C, D, E

P = OC(Cn1cncn1)(Cn1cncn1)c1ccc(F)cc1F
Q = CCC(C)(C)C(=O)O[C@H]1C[C@@H](C)C=C2C=C[C@H](C)[C@H](CC[C@@H]3C[C@@H](O)CC(=O)O3)[C@H]21
Name the one with the greater fraction unbound at 4 h, 0.5 μM value, either P or Q as given. Record your answer as the label of the chosen record.
P
(P: 1, Q: 0.0032)

a = COC(=O)CCc1ccc(OCC(O)CNC(C)C)cc1 (stereo not drawn)
b = COc1ccc2[nH]c([S+]([O-])Cc3ncc(C)c(OC)c3C)nc2c1 (stereo not drawn)
c = CCOc1cc(CC(=O)N[C@@H](CC(C)C)c2ccccc2N2CCCCC2)ccc1C(=O)O [Repaglinide]
List items by fraction unbound at 4 h, 0.5 μM in falling order. Field: ranking. Enter the labels in the order requested.
a, b, c
